Quick reference: self-cleavage of the listed items.
B1: Twister Ribozyme (parent)
chain: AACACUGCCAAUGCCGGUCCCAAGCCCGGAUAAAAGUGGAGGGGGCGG

- Variants of: B1
- ASSAY: self-cleavage, relative activity (ratio to wild type); higher = more cleavage; co-transcriptional
RECORDED METRIC: self-cleavage

[[record]]
variant_key = "A33U A34C"
measurement = 0.637

[[record]]
variant_key = "A11G A22G"
measurement = 0.23

[[record]]
variant_key = "C20G A35U"
measurement = 0.182

[[record]]
variant_key = "C19U A40U"
measurement = 0.133

[[record]]
variant_key = "G17U C27G"
measurement = 0.424

[[record]]
variant_key = "G29A G39C"
measurement = 0.166

[[record]]
variant_key = "C3A G16C"
measurement = 0.0608

[[record]]
variant_key = "C27A A34U"
measurement = 0.145

[[record]]
variant_key = "G24C G44A"
measurement = 0.0864

[[record]]
variant_key = "C5A C20U"
measurement = 0.465

[[record]]
variant_key = "C19G G28U"
measurement = 0.212

[[record]]
variant_key = "C21A U37A"
measurement = 0.105

[[record]]
variant_key = "G39U A40U"
measurement = 0.158

[[record]]
variant_key = "G29C C46U"
measurement = 0.769

[[record]]
variant_key = "U12C C27G"
measurement = 0.0656

[[record]]
variant_key = "U18C U31C"
measurement = 0.569

[[record]]
variant_key = "A1G G43C"
measurement = 0.255

[[record]]
variant_key = "G7C C25A"
measurement = 0.0795

[[record]]
variant_key = "A33C A40U"
measurement = 0.1

[[record]]
variant_key = "C15A G41C"
measurement = 0.16

[[record]]
variant_key = "C3A A22U"
measurement = 0.127

[[record]]
variant_key = "C9A A10U"
measurement = 0.646

[[record]]
variant_key = "G13C A35U"
measurement = 0.629

[[record]]
variant_key = "U18C G36U"
measurement = 0.0651

[[record]]
variant_key = "A2C U31C"
measurement = 0.0894

[[record]]
variant_key = "A23U G36C"
measurement = 0.12

[[record]]
variant_key = "G28A A34U"
measurement = 0.497

[[record]]
variant_key = "G7C G43C"
measurement = 0.0825

[[record]]
variant_key = "C14A G41U"
measurement = 0.55

[[record]]
variant_key = "A10G A30C"
measurement = 0.981

[[record]]
variant_key = "A1C G39U"
measurement = 0.129

[[record]]
variant_key = "U18G A34G"
measurement = 0.079

[[record]]
variant_key = "U6A C27A"
measurement = 0.119

[[record]]
variant_key = "C9A A22U"
measurement = 0.259

[[record]]
variant_key = "G16U A40G"
measurement = 0.206

[[record]]
variant_key = "G24U G28C"
measurement = 0.0992

[[record]]
variant_key = "C9U C14G"
measurement = 0.0927

[[record]]
variant_key = "G16U G45U"
measurement = 0.819

[[record]]
variant_key = "C27U G45C"
measurement = 0.354

[[record]]
variant_key = "C14U G36C"
measurement = 0.464

[[record]]
variant_key = "G41U G47A"
measurement = 0.349

[[record]]
variant_key = "C25G G28A"
measurement = 0.346

[[record]]
variant_key = "G7C G41C"
measurement = 0.0623

[[record]]
variant_key = "G16A G41U"
measurement = 0.396

[[record]]
variant_key = "G28U G41U"
measurement = 0.419

[[record]]
variant_key = "A23U C25G"
measurement = 0.0583

